Measured melting point accompanies every entry in the list below.

Observe how each entry below is paired with its result.
>>> result("COc1ccc(C(=O)Nc2ccccc2)c(CC2CCCCN2)c1 (stereo not given)")
"108 to 109 °C"
>>> result("Cc1ccccc1-c1ccc2c(c1)CC[C@H]1N(C)C(=O)CC[C@]21C")
"82 to 87 °C"
>>> result("O=c1cc2c(nn1-c1ccc(Cl)cc1)-c1cc(CO)sc1CCC2")
"118 to 121 °C"

Record summary for OC1CSC(Oc2cncc(-c3ccc(F)c(F)c3)c2)C(O)C1O (stereo not given) : reported melting point = 198 to 203 °C

Record summary for CCCOc1ccccc1-c1nc2nc(NCC(C)OC)ncc2c(=O)[nH]1 (stereo not given) : reported melting point = 193 to 194 °C

====

Measured melting point accompanies every entry in the list below.

Observe how each entry below is paired with its result.
>>> result("COc1ccc(C#CC(C)N(O)C(N)=O)cc1Oc1ccc(F)cc1 (stereo unspecified)")
"139 to 140 °C"
>>> result("CC(C)(C)NNC(=O)c1cccc(Cl)c1")
"116 to 118 °C"

Record summary for "CCOC(=O)C=Cc1cnc(C(C)(C)C)nc1" : reported melting point = 43 to 45 °C

Record summary for "N#Cc1ccc2[nH]cc(C3=CCC4(CC3)OCCO4)c2c1" : reported melting point = 158 to 160 °C

Record summary for CON=C(C(=O)NC1C(=O)N2C(C(=O)O)=C(CSc3nnnn3C)SCC12)c1csc(N)n1 (stereo unspecified) : reported melting point = 180 °C

Record summary for "CCN(CC)S(=O)(=O)c1ccccc1S(N)(=O)=O" : reported melting point = 156 to 159 °C

Record summary for "O=C(O)CCCC(=O)c1ccc2c(c1)CCO2" : reported melting point = 131 to 133 °C

Record summary for "CCOC(=O)c1cc(CC)sc1Nc1cc(F)cc(F)c1N" : reported melting point = 106 °C

====

Measurement Type: melting point

>>> result("CC1(C)CCC(C)(C)c2cc(C(=O)c3ccc(C(O)=NO)cc3)c(OCc3ccc(Br)cc3)cc21")
"221 to 224 °C"
>>> result("CCOC(=O)/C=C/c1ccc(OCOC)cc1Oc1ncc(C(F)(F)F)cc1Cl")
"73.5 to 74.5 °C"
>>> result("COCCCS(=O)(=O)NC(=O)CCc1cc(C(C)(C)C)nn1Cc1ccc(C(F)(F)F)cc1Cl")
"149 to 150 °C"
>>> result("O=C(c1ccc(OC23CC4CC(CC(C4)C2)C3)cc1)N1CCCC1")
"111 to 113 °C"

Attention now shifts to the item below.
Record summary for "O=[N+]([O-])c1cccc2c(C(F)(F)F)cccc12" : reported melting point = 107 to 108 °C

====

Measurement Type: melting point

Observe how each entry below is paired with its result.
>>> result("O=C(O)C1=Cc2c(F)ccc(Br)c2OC1C(F)(F)F (stereo not given)")
"222 to 223 °C"
>>> result("CCOC(=O)C1=C(C)NC(N=CN(C)C)=C(C(=O)OCC)C1c1cccc(Cl)c1 (stereo not given)")
"150 °C"
>>> result("CN(C)C=Cc1ncc([N+](=O)[O-])n1CCO")
"155 to 157 °C"

Record summary for "NNC(=O)c1ccccc1-c1ccc(N)cc1" : reported melting point = 135 to 137 °C

Record summary for "CS(=O)(=O)c1ccc(-n2cc(-c3ccc4ccccc4c3)nc2-c2ccc(Cl)cc2)cc1" : reported melting point = 204 to 206 °C

Record summary for "O=C(NCc1ccc(Cl)cc1)c1cn2c3c(cc(CN4CCOCC4)cc3c1=O)CN(Cc1ccccc1)C2" : reported melting point = 203 to 205 °C

Record summary for "COC(=O)c1sc2cc(OCc3cccnc3)ccc2c1Cl" : reported melting point = 148 to 150 °C

Record summary for CC(=O)NC1(c2ccccc2)C2=NCC(C)(C)CN2c2ccccc21 (stereo not given) : reported melting point = > 300 °C

Record summary for CC(C)C=CC1(C(F)(F)F)OCC(=O)Nc2ccc(F)cc21 (stereo not given) : reported melting point = 145 to 156 °C

Record summary for "Cc1nc(-c2cccnc2)c2nc(-c3ccccc3)cc-2[nH]1" : reported melting point = 252 to 254 °C
